B1: BMPRII extracellular domain (ECD), wild type [human] / BMP10 growth factor (GF)-domain from Pro:BMP10 made in HEK EBNA cells [human] (parent)
chain 1: SQNQERLCAFKDPYQQDLGIGESRISHENGTILCSKGSTCYGLWEKSKGDINLVKQGCWSHIGDPQECHYEECVVTTTPPSIQNGTYRFCCCSTDLCNVNFTENFPPPDTTPLSPPHSFNRDET
chain 2: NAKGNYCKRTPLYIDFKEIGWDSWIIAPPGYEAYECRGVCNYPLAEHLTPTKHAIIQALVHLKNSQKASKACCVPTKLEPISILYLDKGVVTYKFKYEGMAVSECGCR

variants of: B1; test: ELISA (prodomain displacement); conditions: with BMP10 growth factor (GF)-domain from Pro:BMP10 made in HEK EBNA cells [human]; BMPRII ECD at 125x excess over Pro:BMP10; lower reading = more prodomain displaced; parent: 0.42; read off a plot
test readout: screen value

[[record]]
seq_string = "chain 1 SQNQERLCAFKDPYQQDLGIGESRISHENGTILCSKGSTCYGLWEKSKGDINLVKQGCWSHIGDPQECHYEECVVTTTPPPIQNGTYRFCCCSTDLCNVNFTENFPPPDTTPLSPPHSFNRDET [chain 1 S81P]"
val = 0.3

[[record]]
seq_string = "chain 1 SQNQERLCAFKDPYQQDLGIGESRISHENGTILCSKGSTCYGLWEKSKGDINLVKQGCWSHIGDPHECHYEECVVTTTPPSIQNGTYRFCCCSTDLCNVNFTENFPPPDTTPLSPPHSFNRDET [chain 1 Q66H]"
val = 0.47

[[record]]
seq_string = "chain 1 SQNQERLCAFKDPYQQDLGIGESRISHENGTILCSKGSTCYGLWEKSKGDINLVKQECWSHIGDPQECHYEECVVTTTPPSIQNGTYRFCCCSTDLCNVNFTENFPPPDTTPLSPPHSFNRDET [chain 1 G57E]"
val = 1

[[record]]
seq_string = "chain 1 SQNQERLCAFKDPYQQDLGIGESRISHENGTILCSKGSTCYGLWEKSKGDINLVKQGCWSHIWDPQECHYEECVVTTTPPSIQNGTYRFCCCSTDLCNVNFTENFPPPDTTPLSPPHSFNRDET [chain 1 G63W]"
val = 0.67

[[record]]
seq_string = "chain 1 SQNQERLCAFKDPYQQDLGIGESRISHENGTILCSKGSTCYGLWEKSKGDINLVKQGCWSHIEDPQECHYEECVVTTTPPSIQNGTYRFCCCSTDLCNVNFTENFPPPDTTPLSPPHSFNRDET [chain 1 G63E]"
val = 0.75

[[record]]
seq_string = "chain 1 SQNQERLCAFKDPYQQDLGIGESRISHENGTILCSKGSTCYDLWEKSKGDINLVKQGCWSHIGDPQECHYEECVVTTTPPSIQNGTYRFCCCSTDLCNVNFTENFPPPDTTPLSPPHSFNRDET [chain 1 G42D]"
val = 0.95

[[record]]
seq_string = "chain 1 SQNQERLCAFKDPYQQDLGIGESRISHENGTILCSKGSTCYGLWEKSKGDINLVKQGCWSHIGDPQECHYEKCVVTTTPPSIQNGTYRFCCCSTDLCNVNFTENFPPPDTTPLSPPHSFNRDET [chain 1 E72K]"
val = 0.42

[[record]]
seq_string = "chain 1 SQNQERLCAFKDPYQQDLGIGESRISHENGTILCSKGSTCCGLWEKSKGDINLVKQGCWSHIGDPQECHYEECVVTTTPPSIQNGTYRFCCCSTDLCNVNFTENFPPPDTTPLSPPHSFNRDET [chain 1 Y41C]"
val = 1

[[record]]
seq_string = "chain 1 SQNQERLCAFKDPYQQDLGIGESRISHENGTILCSKGSTCYGLWEKSKGDINLVKQGCWSHIGDPQECHYEECVVTTTPPSIQNGTYRFCCCSTDLCNVSFTENFPPPDTTPLSPPHSFNRDET [chain 1 N100S]"
val = 0.52

[[record]]
seq_string = "chain 1 SQNQERLCAFKDPYQQDLGIGESRISHENGTILCSKGSTCYGLWEKSKGDINLVKQGCWSHIADPQECHYEECVVTTTPPSIQNGTYRFCCCSTDLCNVNFTENFPPPDTTPLSPPHSFNRDET [chain 1 G63A]"
val = 0.57

